The measured values listed here are drawn from ChEMBL document CHEMBL1124777.

In this section, each of the compounds is paired with its reported EC30.
Species: Cavia porcellus
Assay: Evaluated in vitro for its effect on atrial contractility in electrically stimulated isolated guinea pig left atria
Conditions: Cardiac atrium
quantityMeasured: EC30 (µg/mL)

| compound | value |
| --- | --- |
| COc1ccc(CCN(C)CCCN2Cc3cc(OC)c(OC)cc3C2=O)cc1OC.Cl | 93.6 |
| COc1ccc([C@@H]2Sc3ccccc3N(CCN(C)C)C(=O)[C@@H]2OC(C)=O)cc1 [DILTIAZEM] | 2.73 |
| COC(=O)C1=C(C)NC(C)=C(C(=O)OC)C1c1ccccc1[N+](=O)[O-] [NIFEDIPINE] | 0.0149 |
| COc1ccc(CCN(C)CCCN2CCc3cc(OC)c(OC)cc3CC2=O)cc1OC.Cl [ZATEBRADINE HYDROCHLORIDE] | 108 |
| COc1ccc(CCN(C)CCC[C@@](C#N)(c2ccc(OC)c(OC)c2)C(C)C)cc1OC [(S)-VERAPAMIL] | 0.0611 |
